The measured values listed here are drawn from patent US20200069691A1.

The entries below are paired with their reported log10 of IC50.
target: wild-type HIV-1 protease (Human immunodeficiency virus type 1 group M subtype B)
Remember, log10 of IC50, in nM.

Below: 5 molecules and their reported log10 of IC50.
molecule	log10 of IC50
COC(=O)Nc1ncc2c(n1)CN(C(=O)c1cccc(CN3C(=N)NC(CC(C)C)(c4ccccc4)C3=O)c1)C2 (stereo not shown) [Compound 188]	0.58
N=C1N[C@](CCCC(F)(F)F)(c2ccc(F)cc2)C(=O)N1Cc1ccc(C(F)(F)F)c(C(=O)N2Cc3cnc(-c4cnc5[nH]ccc5c4)nc3C2)c1 [Compound 39]	0.61
N=C1NC(c2ccccc2)(c2ccccc2)C(=O)N1Cc1cccc(C(=O)N2CCc3ccncc3C2)c1 [Compound 313]	1.72
CC(C)CCC1(c2ccc(F)cc2)NC(=N)N(Cc2ccc(C(F)(F)F)c(C(=O)N3C[C@@H]4C(=O)NC(=O)[C@]4(c4ccccc4)C3)c2)C1=O (stereo partly shown) [Compound 159]	1.20
CC(C)CC[C@]1(c2ccccc2)NC(=N)N(Cc2cc(F)cc(C(=O)N3Cc4nccnc4C3)c2)C1=O [Compound 207]	0.92

Prompt: Fill in the recorded log10 of IC50 for this molecule, with wild-type HIV-1 protease (Human immunodeficiency virus type 1 group M subtype B) as test system: N=C1NC(c2ccc(F)cc2)(c2ccc(F)cc2)C(=O)N1Cc1ccc(C(F)(F)F)c(C(=O)N2CCC(F)(F)C2)c1 [Compound 172]
Response: 1.73

Prompt: What is its log10 of IC50 for wild-type HIV-1 protease (Human immunodeficiency virus type 1 group M subtype B)? Entry: COC(=O)N1CCN(C(=O)c2cccc([C@@H](C)N3C(=N)N[C@](CCC(C)C)(c4ccccc4)C3=O)c2)CC1 [Compound 221]
Response: 1.05

====

In what follows, each item is paired with its IC50 for wild-type HIV-1 protease (Human immunodeficiency virus type 1 group M subtype B).
Kindly provide the numeric value in nM only, without the unit symbol.

Completed entries (count: 5):
compound	IC50, nM
CC(C)CCC1(c2ccc(F)cc2)NC(=N)N(Cc2ccc(C(F)(F)F)c(C(=O)N3Cc4nccnc4C3)c2)C1=O (stereo not shown) [Compound 146]	4.07
CN(C)c1ccc(-c2ncc3c(n2)CN(C(=O)c2cc(CN4C(=N)N[C@](CCCC(F)(F)F)(c5ccc(F)cc5)C4=O)ccc2C(F)(F)F)C3)cn1 [Compound 16]	1.98
N=C1NC(c2ccccc2)(c2ccccc2)C(=O)N1Cc1cccc(C(=O)N2Cc3ccc(F)cc3C2)c1 [Compound 203]	6.71
N=C1NC(c2ccc(F)cc2)(c2ccccn2)C(=O)N1Cc1cccc(C(=O)N2Cc3[nH]nc(C(F)(F)F)c3C2)c1 (stereo not shown) [Compound 248]	18
CNC(=O)N1CCN(C(=O)c2cc(CN3C(=N)N[C@](CCCC(F)(F)F)(c4ccc(F)cc4)C3=O)ccc2C(F)(F)F)CC1 [Compound 115]	36.5

Prompt: Kindly state the measured IC50 obtained for COC(=O)N1CCN(C(=O)c2cccc(CN3C(=N)NC(c4ccc(F)cc4)(c4cccc(-c5cccc(C#N)c5)c4)C3=O)c2)CC1 (stereo not shown) [Compound 234] with wild-type HIV-1 protease (Human immunodeficiency virus type 1 group M subtype B).
Response: 14.2

Prompt: Missing value: IC50, wild-type HIV-1 protease (Human immunodeficiency virus type 1 group M subtype B), entry CC(C)CCC1(c2ccccc2)NC(=N)N(Cc2ccc(C(F)(F)F)c(C(=O)N3CCCC3)c2)C1=O (stereo not shown) [Compound 170] . Fill in?
Response: 40.3
